Tested on: RAW-Dual (murine macrophage reporter line)
assay protocol: NF-kB reporter (SEAP) activity fold change vs agonist alone; higher = enhanced NF-kB activity
run parameters: modulator concentration 10 µM; agonist: MPLA […]
Reported NF-kB reporter values follow for various compounds
Reply: number alone, nothing else.

{"compound": "CNCCC=C1c2ccccc2CCc2ccccc21.Cl", "NF-kB reporter": 1.8}
{"compound": "Brc1ccc(-c2nc(-c3ccccc3)cc(N3CCOCC3)n2)cc1", "NF-kB reporter": 1.01}
{"compound": "S=C(NCCN1CCOCC1)Nc1ccc(Cl)cc1", "NF-kB reporter": 0.886}
{"compound": "CC#CCn1c(N2CCCC(N)C2)nc2c1c(=O)n(Cc1nc(C)c3ccccc3n1)c(=O)n2C (stereo unspecified)", "NF-kB reporter": 0.972}
{"compound": "COCCOC(=O)C1=C(C)NC(C)=C(C(=O)OCC=Cc2ccccc2)C1c1cccc([N+](=O)[O-])c1 (stereo unspecified)", "NF-kB reporter": 1.07}

Now look at this one.
Input: Recall and state the measured NF-kB reporter for O=C(NCC1(O)CCc2ccccc2C1)Nc1ccccc1C(F)(F)F (stereo unspecified) .
Output: 1.18

----------
Tested on: RAW-Dual (murine macrophage reporter line)
assay protocol: IRF reporter (Lucia luciferase) activity fold change vs agonist alone; higher = enhanced IRF activity
run parameters: modulator concentration 10 µM; agonist: LPS 0.1 ug/mL
Parameter threshold = 1. Response is label 1 when IRF reporter meets or exceeds it, else label 0.

Consider the following illustrative entries.
{"compound": "O=c1c2c([nH]c3c(-c4cccc5ccccc45)cnn13)CCCC2", "assigned label": "label 1"}
{"compound": "C[C@H](Oc1ccc(S(C)(=O)=O)cc1C(=O)N1CCN(c2ncc(C(F)(F)F)cc2F)CC1)C(F)(F)F", "assigned label": "label 1"}
{"compound": "CNc1ccc([N+](=O)[O-])cc1-n1cnc(-c2ccc([N+](=O)[O-])cc2)c1", "assigned label": "label 1"}
{"compound": "CC(C)Cc1ccc(C(C)C(=O)O)cc1.NCCCC[C@H](N)C(=O)O (configuration not stated)", "assigned label": "label 1"}
{"compound": "CN1CCN(CCCN2c3ccccc3Sc3ccc(Cl)cc32)CC1", "assigned label": "label 1"}
{"compound": "CN1CCOC(c2ccccc2)c2ccccc2C1.Cl (configuration not stated)", "assigned label": "label 1"}
{"compound": "NC(=O)Cn1c(COc2ccccc2Cl)nc2ccccc21", "assigned label": "label 1"}
{"compound": "c1ccc(CSc2nnc(-c3ccncc3)[nH]2)cc1", "assigned label": "label 0"}

Input: Form field: IRF reporter at least 1? Entry: O=C(Nc1nc2ccc(Cl)cc2s1)c1ccc(Br)s1
Output: label 1

Input: Form field: IRF reporter at least 1? Entry: CCOC(=O)C1=C(C)NC(C)=C(C(=O)OC)C1c1cccc(Cl)c1Cl (configuration not stated)
Output: label 1

Input: Form field: IRF reporter at least 1? Entry: O=C1c2cccc3c2[C@H](CCC3)CN1[C@@H]1CN2CCC1CC2
Output: label 0

Input: Form field: IRF reporter at least 1? Entry: Cc1ccc(S(=O)(=O)CCSc2cccc(C(=O)Nc3ccccc3)c2)cc1
Output: label 1

Input: Form field: IRF reporter at least 1? Entry: CS(=O)(=O)N(CC(=O)NC1CC1)c1cccc2ccccc12
Output: label 1

Input: Form field: IRF reporter at least 1? Entry: Cc1cc(CNS(=O)(=O)Cc2ccc(C(F)(F)F)cc2)c(C)o1
Output: label 1

Input: Form field: IRF reporter at least 1? Entry: COc1cc(NC(=O)NCc2nc(C)cc(N3CCOCC3)n2)cc(OC)c1
Output: label 1

Input: Form field: IRF reporter at least 1? Entry: Cc1cc(/C=C/C#N)cc(C)c1Nc1ccnc(Nc2ccc(C#N)cc2)n1
Output: label 0

----------
Test system: RAW-Dual (murine macrophage reporter line)
assay protocol: NF-kB reporter (SEAP) activity fold change vs agonist alone; higher = enhanced NF-kB activity
run parameters: modulator concentration 10 µM; agonist: MPLA […]
Reported NF-kB reporter values follow for various compounds
Reply: number alone, nothing else.

Sample records with NF-kB reporter:
{"compound": "NC(=O)c1cc2ccccc2oc1=NCc1ccccc1", "NF-kB reporter": 0.91}
{"compound": "COC(=O)C1=C(C)N(Cc2ccccc2)C(=O)C1", "NF-kB reporter": 0.984}
{"compound": "Cc1ccc(Nc2cc(N3CCCCC3)c(N)c3c2C(=O)c2ccccc2C3=O)cc1", "NF-kB reporter": 0.964}
{"compound": "CCOC(=O)c1ccc2nc(NC(=O)c3ccco3)sc2c1", "NF-kB reporter": 1.13}
{"compound": "COc1ccc(C2C3=C(CC(c4ccccc4)CC3=O)Nc3ccccc3N2C(=O)C(C)C)cc1OC (stereo not drawn)", "NF-kB reporter": 1.01}

Now look at this one.
Input: Recall and state the measured NF-kB reporter for Cc1cc(OC2CN(C(=O)Cn3cnc4ccccc43)C2)cc(=O)n1C1CC1 .
Output: 0.97

----------
Test system: RAW-Dual (murine macrophage reporter line)
assay protocol: IRF reporter (Lucia luciferase) activity fold change vs agonist alone; higher = enhanced IRF activity
run parameters: modulator concentration 10 µM; agonist: MPLA […]
experimental readout: IRF reporter
Reply: number alone, nothing else.

Sample records with IRF reporter:
{"molecule": "CC(Oc1cccc(Cl)c1)C(=O)NCc1ccncc1 (configuration not stated)", "IRF reporter": 0.988}
{"molecule": "CS(=O)(=O)N(CC(=O)NCCSCc1cccc(Cl)c1)c1cccc(Cl)c1", "IRF reporter": 1.24}
{"molecule": "CN(C)CCC=C1c2ccccc2C=Cc2ccccc21.Cl", "IRF reporter": 1.18}
{"molecule": "COCCCN1C(=O)C(=Cc2ccc(-c3ccc(Cl)cc3Cl)o2)SC1=S", "IRF reporter": 0.998}
{"molecule": "Cc1occc1C(=O)Nc1ccc(F)c(F)c1", "IRF reporter": 1.46}

Input: Recall and state the measured IRF reporter for S=C(NCCN1CCOCC1)Nc1ccc(Cl)cc1 .
Output: 1.13

Input: Recall and state the measured IRF reporter for NC(=O)NO .
Output: 1.09

Input: Recall and state the measured IRF reporter for CCc1ccc(Cc2ccc3c(c2)[C@]2(OC3)O[C@H](CO)[C@@H](O)[C@H](O)[C@H]2O)cc1.O .
Output: 1.16

Input: Recall and state the measured IRF reporter for CCOC(=O)N1CCN(C(=O)CSc2nnc(-c3cccc(Cl)c3)o2)CC1 .
Output: 1.04

Input: Recall and state the measured IRF reporter for CCN(CC)CC#CC(OC)(c1ccccc1)c1ccccc1.Cl .
Output: 1.29

Input: Recall and state the measured IRF reporter for CCCCc1c(C)nc(NN=C(C)c2cccc([N+](=O)[O-])c2)nc1O .
Output: 1.18

Input: Recall and state the measured IRF reporter for O=S(=O)(Nc1nc2ccccc2nc1Nc1ccc2c(c1)OCCO2)c1cccs1 .
Output: 1.05

----------
Test system: RAW-Dual (murine macrophage reporter line)
assay protocol: IRF reporter (Lucia luciferase) activity fold change vs agonist alone; higher = enhanced IRF activity
run parameters: modulator concentration 10 µM; agonist: LPS 0.1 ug/mL
Parameter threshold = 1. Response is y when IRF reporter meets or exceeds it, else n.

Consider the following illustrative entries.
{"compound": "COc1cccc(CC(=O)Nc2ccc(CC(=O)N3CCC(O)CC3)cc2)c1", "assigned label": "y"}
{"compound": "CC(=NN1CCN(C2c3ccccc3-c3ccccc32)CC1)c1ccccc1O", "assigned label": "y"}
{"compound": "O=C(Oc1ccc(O)c(CO)c1)c1ccccc1", "assigned label": "n"}
{"compound": "C=C1CCC(OC(C)=O)C(C)=CCC2C1CC2(C)C (stereo unspecified)", "assigned label": "n"}

Input: Form field: IRF reporter at least 1? Entry: COc1ccc(C=NNC(=O)CSc2nnc(-c3ccncc3)n2-c2ccccc2)cc1OC
Output: y

Input: Form field: IRF reporter at least 1? Entry: Nc1nc(N)nc(-c2cc(Cl)ccc2Cl)n1
Output: y

Input: Form field: IRF reporter at least 1? Entry: COC1(c2ccc(Cl)cc2)OC(=O)c2ccccc21 (stereo unspecified)
Output: y

Input: Form field: IRF reporter at least 1? Entry: CCC(CNC(=O)Cc1c(F)cccc1Cl)(OC)c1ccccc1 (stereo unspecified)
Output: y

Input: Form field: IRF reporter at least 1? Entry: Br.CCCc1cc(-c2nc(-c3ccc(C)cc3)cs2)ccn1
Output: y

Input: Form field: IRF reporter at least 1? Entry: CC(=O)SCC(Cc1ccccc1)C(=O)NCC(=O)OCc1ccccc1 (stereo unspecified)
Output: n

----------
Test system: RAW-Dual (murine macrophage reporter line)
assay protocol: NF-kB reporter (SEAP) activity fold change vs agonist alone; higher = enhanced NF-kB activity
run parameters: modulator concentration 10 µM; agonist: LPS 0.1 ug/mL
experimental readout: NF-kB reporter
Reply: number alone, nothing else.

Sample records with NF-kB reporter:
{"smiles notation": "CCCc1nc2c(C)cc(-c3nc4ccccc4n3C)cc2n1Cc1ccc(-c2ccccc2C(=O)O)cc1", "value reported": 1.16}
{"smiles notation": "COc1ccc(S(=O)(=O)NNc2ccc([N+](=O)[O-])cc2[N+](=O)[O-])cc1", "value reported": 0.864}
{"smiles notation": "CCOc1ccccc1OCCCCOc1cccc(Br)c1", "value reported": 1.05}
{"smiles notation": "O=C(NCCN1CCN(c2ccc(Cl)cc2)CC1)c1ccno1", "value reported": 0.992}

Input: Give NF-kB reporter; test system RAW-Dual (murine macrophage reporter line); molecule CCOC(=O)Cc1cc(OC)c(OC)cc1C(C)=NNc1ccccc1
Output: 0.831
